- tgt: CDK4 protein (Homo sapiens)
- Construct: host or cells: OVCAR3
- Sequence (P11802 whole entry): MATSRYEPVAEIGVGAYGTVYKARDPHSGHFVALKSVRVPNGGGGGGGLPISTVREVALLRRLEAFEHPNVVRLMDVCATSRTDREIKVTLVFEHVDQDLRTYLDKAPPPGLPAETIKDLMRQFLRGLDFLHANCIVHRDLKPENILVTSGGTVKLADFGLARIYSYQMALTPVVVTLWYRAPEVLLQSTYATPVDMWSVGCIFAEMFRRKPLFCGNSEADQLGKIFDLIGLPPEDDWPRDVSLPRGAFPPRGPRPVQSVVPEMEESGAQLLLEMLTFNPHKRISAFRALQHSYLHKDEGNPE
- test: CDK4 protein degradation in OVCAR3 cells (Western blot)
- Type: cell-based
- measurementContext: 24 h, read-out: DC50 CDK4 (half-maximum degradation concentration)
readoutName: DC50

Worked set:
Cc1nc2c(F)cc(-c3nc(NC4CCN(S(=O)(=O)C5CCN(CC6CC7(C6)CN(c6cc8c(cc6F)C(=O)N(C6CCC(=O)NC6=O)C8=O)C7)CC5)CC4)ncc3F)cc2n1C(C)C (stereo not drawn) :: > 0.2 µM
C[C@@]1(O)CCC[C@H]1n1c(=O)c(C(F)F)cc2cnc(NC3CCN(S(=O)(=O)C4CCN(CC5CCN(C6CN(c7cc8c(cc7F)C(=O)N(C7CCC(=O)NC7=O)C8=O)C6)CC5)CC4)CC3)nc21 (stereo partly drawn) :: > 0.2 µM

Below: the item to evaluate.
Value lookup for DC50; key = Cc1nc2c(F)cc(-c3nc(NC4CCN(S(=O)(=O)C5CCN(CC6CCN(C7CN(c8cc9c(cc8F)C(=O)N(C8CCC(=O)NC8=O)C9=O)C7)CC6)CC5)CC4)ncc3F)cc2n1C(C)C (stereo not drawn)
> 0.2 µM
